- tested-target: Prostaglandin G/H synthase 1 (Homo sapiens)
- Sequence (P23219 whole entry): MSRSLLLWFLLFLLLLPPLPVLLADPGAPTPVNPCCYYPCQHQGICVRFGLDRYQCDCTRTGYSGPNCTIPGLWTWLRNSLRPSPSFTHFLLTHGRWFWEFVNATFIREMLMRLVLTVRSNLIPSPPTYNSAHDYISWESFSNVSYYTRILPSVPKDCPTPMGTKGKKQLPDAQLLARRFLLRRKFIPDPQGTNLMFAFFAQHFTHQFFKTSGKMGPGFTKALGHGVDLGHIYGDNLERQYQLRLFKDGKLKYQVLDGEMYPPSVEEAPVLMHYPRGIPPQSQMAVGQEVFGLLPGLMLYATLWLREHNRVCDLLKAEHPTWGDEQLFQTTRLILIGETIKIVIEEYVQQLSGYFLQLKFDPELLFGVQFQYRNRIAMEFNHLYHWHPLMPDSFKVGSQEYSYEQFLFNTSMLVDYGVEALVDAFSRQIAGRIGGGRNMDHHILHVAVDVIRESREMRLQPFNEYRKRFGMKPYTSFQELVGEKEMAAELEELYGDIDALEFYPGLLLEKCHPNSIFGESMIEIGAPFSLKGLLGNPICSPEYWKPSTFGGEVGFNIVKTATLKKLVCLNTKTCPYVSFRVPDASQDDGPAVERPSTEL
- assay-text: Percent inhibition at 10 uM concentration against human recombinant Prostaglandin G/H synthase 1 cloned and expressed in baculovirus
measurement-name: inhibition

COc1ccc2c(c1)c(Cc1nc(C(=O)O)cs1)c(C)n2C(=O)c1ccc(Cl)cc1 ... 6%
COc1ccc2c(c1)c(Cc1csc(-c3ccccc3Cl)n1)c(C)n2C(=O)c1ccc(Cl)cc1 ... 24%
COc1ccc2c(c1)c(Cc1nc(C(C)C)cs1)c(C)n2C(=O)c1ccc(Cl)cc1 ... 36%

For the next question, use this compound.
Q) Consider the compound COc1ccc2c(c1)c(Cc1nc(-c3ccc4ccccc4c3)cs1)c(C)n2C(=O)c1ccc(Cl)cc1 and give its recorded inhibition.
A) 11%
